Just for reference, patent US9920061B2 is where these values come from.

# testTarget: glucocerebrosidase (Gcase) (Homo sapiens, UniProt P04062)
# Sequence (P04062 40-536): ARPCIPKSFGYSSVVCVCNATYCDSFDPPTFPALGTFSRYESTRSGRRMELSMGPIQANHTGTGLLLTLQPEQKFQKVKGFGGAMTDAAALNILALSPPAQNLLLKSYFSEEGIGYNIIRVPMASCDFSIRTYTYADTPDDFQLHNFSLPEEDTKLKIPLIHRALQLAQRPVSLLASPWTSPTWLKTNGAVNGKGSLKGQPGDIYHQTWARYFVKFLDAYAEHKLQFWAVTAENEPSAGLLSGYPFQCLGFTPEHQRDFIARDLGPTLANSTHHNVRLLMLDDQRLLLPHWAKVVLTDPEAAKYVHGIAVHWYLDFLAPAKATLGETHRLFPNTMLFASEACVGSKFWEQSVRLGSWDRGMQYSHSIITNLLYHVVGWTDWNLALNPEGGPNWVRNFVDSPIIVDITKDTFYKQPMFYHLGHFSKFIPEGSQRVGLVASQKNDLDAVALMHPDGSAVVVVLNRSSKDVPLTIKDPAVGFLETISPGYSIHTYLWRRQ
# assayText: Glucocerebrosidase (Gcase) activation assay, 4-methylumbelliferyl-beta-D-glucopyranoside substrate, with saposin C
# Format: biochemical
# conditionsUsed: 0.1 μM test compound; read-out: Percent Gcase Activation 0.1 μM Test Compound
property: activation at 0.1 µM

*Q* Give activation at 0.1 µM for CCNc1cc(C)n2cnc(C(=O)NC(c3ccc(F)cc3)C(F)(F)F)c2n1 (centres unmarked) [III-90]
*A* > 20%

*Q* Give activation at 0.1 µM for Cc1cc(C)n2cnc(C(=O)NC(C3CCCCC3)C(F)(F)F)c2n1 (centres unmarked) [III-15]
*A* > 20%
